# Tested on: A549 cells
# protocol: LDH release cytotoxicity assay
# Format: cell-based, human
# details: A549 cells, 24 h
# Experimental: Cells were treated with compounds at the indicated concentrations for 24 h. The release of lactate dehydrogenase (LDH) was measured using a Cytotoxicity Detection Kit (Roche, Basel, Switzerland) after removing cell debris. Cells treated with 1% Triton X-100 were used to determine the maximal LDH release.
measurement-name: CC50 (µM)
// return numeric value only (unit: µM, not printed)

Answered cases to consult:
smi	observed-result
N[C@@H](Cc1ccccc1)C(=O)Nc1ccc(-n2cc(C(F)(F)F)cc2-c2ccc3c(ccc4ccccc43)c2)cc1	20.3
CC(C)(N)C(=O)Nc1ccc(-n2cc(C(F)(F)F)cc2-c2ccc3c(ccc4ccccc43)c2)cc1	20.5

Consider the additional molecule presented here.
Please report the recorded CC50 for `NCC(=O)Nc1ccc(-n2nc(C(F)(F)F)cc2-c2ccc3c(ccc4ccccc43)c2)cc1` .
21.4

----------
# System: DENV-2-eGFP
# protocol: microbe, parasite or virus in culture
# Assay type: cell-based, dengue virus
# details: Dengue virus, DENV2, A549, 24 h
measurement-name: IC50

smi	IC50
N[C@@H](Cc1ccccc1)C(=O)Nc1ccc(-n2cc(C(F)(F)F)cc2-c2ccc3c(ccc4ccccc43)c2)cc1	52.1 nM
CC(C)(N)C(=O)Nc1ccc(-n2cc(C(F)(F)F)cc2-c2ccc3c(ccc4ccccc43)c2)cc1	69.7 nM

Consider the additional compound presented here.
Please report the recorded IC50 for `NCC(=O)Nc1ccc(-n2nc(C(F)(F)F)cc2-c2ccc3c(ccc4ccccc43)c2)cc1` .
660 nM

----------
# protocol: LDH release cytotoxicity assay
# Type: cell-based, human
# details: human, A549 cells
measurement-name: CC50 at 24 h

Answered cases to consult:
smi	observed-result
CC(C)(N)C(=O)Nc1ccc(-n2cc(C(F)(F)F)cc2-c2ccc3c(ccc4ccccc43)c2)cc1	~20 µM
NCC(=O)Nc1ccc(-n2nc(C(F)(F)F)cc2-c2ccc3c(ccc4ccccc43)c2)cc1	~20 µM

Consider the additional compound presented here.
Please report the recorded CC50 at 24 h for `N[C@@H](Cc1ccccc1)C(=O)Nc1ccc(-n2cc(C(F)(F)F)cc2-c2ccc3c(ccc4ccccc43)c2)cc1` .
~20 µM

----------
# Tested on: DENV-1
# protocol: High-content image analysis of DENV-1 infection (NS3) in A549 cells
# Assay type: cell-based, dengue virus
# details: Dengue virus, DENV1, A549, 24 h
measurement-name: IC50 (nM)
// return numeric value only (unit: nM, not printed)

Please report the recorded IC50 for `N[C@@H](Cc1ccccc1)C(=O)Nc1ccc(-n2cc(C(F)(F)F)cc2-c2ccc3c(ccc4ccccc43)c2)cc1` .
98

----------
# Test system: DENV-3
# protocol: High-content image analysis of DENV-3 infection (NS3) in A549 cells
# Assay type: cell-based, dengue virus
# details: Dengue virus, DENV3, A549, 24 h
measurement-name: IC50 (nM)
// return numeric value only (unit: nM, not printed)

Please report the recorded IC50 for N[C@@H](Cc1ccccc1)C(=O)Nc1ccc(-n2cc(C(F)(F)F)cc2-c2ccc3c(ccc4ccccc43)c2)cc1 [P12-34] .
90.6
